meta.source: patent US20120282637A1

# ASSAY SYSTEM: T1, RAGE-Fc (human, UniProt Q15109 23-344, limits assumed)
# T1 construct: also called hRAGE; not shown: Fc part, detected with anti-hIgG Fc-specific conjugate
# T1 sequence (Q15109 23-344 limits assumed): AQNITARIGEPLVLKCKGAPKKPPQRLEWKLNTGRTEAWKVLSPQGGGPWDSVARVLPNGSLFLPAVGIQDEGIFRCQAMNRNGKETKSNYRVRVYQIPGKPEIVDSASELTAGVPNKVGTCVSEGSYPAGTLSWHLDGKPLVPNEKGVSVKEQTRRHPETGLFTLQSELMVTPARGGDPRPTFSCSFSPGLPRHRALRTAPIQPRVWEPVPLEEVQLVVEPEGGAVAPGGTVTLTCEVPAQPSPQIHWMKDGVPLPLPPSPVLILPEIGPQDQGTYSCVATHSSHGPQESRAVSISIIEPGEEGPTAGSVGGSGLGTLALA
# EXPERIMENTAL DETAILS: competition ELISA against S100A6, mAb 10 µg/mL
METRIC NAME: inhibitory effect

IN: For 152 RAGE-1 (antibody, V domains shown, Anti-RAGE monoclonal antibody from a hybridoma, captured by anti-mouse Fc; also called LP08104; Protein 152 RAGE-1) VH: DVQLQESGPDLVKPSQSLSLTCTVTGYSITSGYSWHWIRQFPGNKLEWMGYIHYSGSTNYNPSLKSRISITRDTSKNQFFLQLNSVTTEDTATYYCARGGDFAYWGQGTLVTVSA VL: DIVLTQSPASLAVSLGQRATISCRASKSVGTSDSSYMHWYQQKPGQPPKLLIYLASNLESGVPARFSGSGSGTDFTLNIHPVEEEDAATYYCQHSRELYTFGGGTKLEIK , what is its reported inhibitory effect?
OUT: > 20%

IN: For the binder 56 RAGE-1 (antibody, V domains shown, Anti-RAGE monoclonal antibody from a hybridoma, captured by anti-mouse Fc; also called LP08103; Protein 56 RAGE-1) VH: QVQLQQSGPELVKPGASVRISCKASGYTFTSYFIHWVKQRPGQGLEWIGWIYPGNVNTKYNEKFKDKATLTADKSSSTAYMQLSNLTSEDSAVYFCVRGQLGDYWGQGITLTVSS VL: DIVMTQSQKFMSTSVGDRVSVTCKASQNVGINVAWYQQKPGQSPKALIYSASYRYSGVPDRFTGSGSGTDFTLIISNVQSEDLAEYFCQQYNNYPRTFGGGTKLEIK , what inhibitory effect is on record?
OUT: > 20%
